Molecular target: CDK2 (Homo sapiens, UniProt P24941)
Construct: host or cells: HEK293-CDK2-Hibit
Test: HiBit Assay Protocol for CDK2 (HIBIT protein quantification, degradation)
Type: cell-based
Conditions: HEK293-CDK2-Hibit cells, compound treatment for 6 hours, ABS DC50
Experimental: HiBit Assay Protocol for CDK2 • 1. The culture medium for HEK293-CDK2-Hibit cells was prepared using DMEM with 10% FBS. • 2. Cells were cultivated in T-75 flasks in a cell culture incubator set at 37° C., 5% CO2, 95% relative humidity. […] Cells were harvested from flask into cell culture medium and then the cell number was counted. […] • 1. […] 20 μL of HiBit reagent was added into each well and the plates were spinned at room temperature at 1,000 RPM for 1 minute to be detected. […]
resultType: DC50 (nM)

P = O=C1CCC(N2Cc3cc(N4CC5(CN(Cc6cccc(S(=O)(=O)N7CCC(Nc8ncc9c(n8)N([C@@H]8CCC[C@@H](O)C8)C(=O)C98CC8)CC7)c6)C5)C4)ccc3C2=O)C(=O)N1 (some centres unmarked) [Compound 120]
Q = C[C@@H](c1cccc(S(=O)(=O)N2CC[C@H](Nc3ncc4c(n3)N([C@@H]3CCC[C@@H](O)C3)C(=O)C43CC3)[C@H](F)C2)c1)N1CCN(c2ccc3c(N4CCC(=O)NC4=O)nn(C)c3c2)[C@@H](C)C1 [Compound 206]
Looking at P and Q , which one comes out lower in DC50 terms? Record your answer as the label of the chosen record. Q
